Biological target: T1, human TMEM106B (human, UniProt Q9NUM4 2-274)
T1 construct: full-length, transiently expressed on HEK293 cells, or natively expressed on HeLa, U251 and A549 cells (the cell is named under assay); also the source of the Pepscan peptides; also called huTMEM106B; huTMEM
Assay: FACS A549 10 ug/ml
assay metric: MFI (MFI)

[
  {
    "binder": "TM-48 (antibody, V domains shown) VH: QVQLQQSGPELVKPGASVKLSCKASGYTFTSYDINWVKQRPGQGLEWIGWIYPRDGNTQYIEKLKGKATLTVDTSSSTAYMELHSLTSEDSAVYFCARWIFYAMDYWGQGTSVTVSS VL: DVLMTQTPLSLPVSLGNQASISCRSSQSIVHGNGNTYLEWYLQKPGQSPKLLIYKVSNRFSGVPDRFSGSGSGTDFTLKISRVEAEDLGVYYCFQGSHLPYTFGGGTKLEIK",
    "data value": 2450
  },
  {
    "binder": "TM-2 (antibody, V domains shown) VH: HIQLVQSGPELKKPGETVKISCKASGYTFTEYPMHWVKQAPGKGFRWMGMIYTNTGEPTYAAEFKGRFAFSLETSASTGYLQINNLKNEDSATYFCVTAGYWGQGTLVTVSA VL: QIVLTQSPAILSASPGEKVTMTCRASSSVSYIHWFLQKPGSSPKPWIYATSNLASGVPFRFIGSGSGTSYSLTISGVEAEDSATYYCQQWSSNPSTFGAGTKLELK",
    "data value": 3360
  },
  {
    "binder": "TM-23 (antibody, V domains shown) VH: QVQLQQSGAELIRPGTSVKVSCKASGYAFTNYLIEWVKKRPGQGLEWIGVINPGSGITNYNEKFKGKATLTADKSSSTAYMQLSSLTSEDSAVYFCARSDFITTVVADYWGQGTTVTVSS VL: DIVVTQTPLSLPVSFGDQVSISCRSSQSLTNYYGNTYLSWYLHKPGQSPQLLIYGISNRFSGVPDRFSGSGSGTDFTLKISTIKPEDLGMYYCLQGTHQPRTFGGGTKLEIK",
    "data value": 757
  }
]
